Exercise: for every item that follows, state its recorded MIC.
# TEST NAME: In vitro ability to inhibit the herpes HSV-2 virus
# Assay type: functional, herpes simplex virus
# RECORDED CONDITIONS: Oryctolagus cuniculus

Examples with their reported MIC follow.
COMPOUND | MIC
CCOC(=O)C(CCCCCCOc1ccc(OC)cc1Cl)P(=O)(OCC)OCC (stereo unspecified) | 3 µg/mL
CCOC(=O)c1ccc(OCCCCCCP(=O)(OCC)OCC)cc1 | 6 µg/mL
CCOP(=O)(OCC)C(CCCCCCCOc1ccc(OC)cc1Cl)C(C)=O (stereo unspecified) | 6 µg/mL
CCOP(=O)(CCCCCCOc1c(Cl)cccc1Cl)OCC | 12 µg/mL

// input: 6 compounds below; output: MIC for each
1. CCOP(=O)(OCC)C(CCCCOc1ccc(OC)cc1Cl)C(C)=O (stereo unspecified)
2. CCOP(=O)(CCCCCCOc1ccc(OC)cc1Cl)OCC [FOSARILATE]
3. CCOP(=O)(OCC)C(CCCCc1ccc(OC)cc1)C(C)=O (stereo unspecified)
4. CCOP(=O)(OCC)C(CCCCCCCCOc1ccc(OC)cc1Cl)C(C)=O (stereo unspecified)
5. CCOP(=O)(OCC)C(CCCCCOc1ccc(OC)cc1Cl)C(C)=O (stereo unspecified)
6. CCCOP(=O)(CCCCCCOc1ccc(OC)cc1Cl)OCCC

stdout:
["12 µg/mL", "3 µg/mL", "25 µg/mL", "6 µg/mL", "6 µg/mL", "6 µg/mL"]

stdin: Give the measured MIC of CCOP(=O)(OCC)C(CCCCCCOc1ccc(OC)cc1Cl)C(C)=O (stereo unspecified) .
stdout: 6 µg/mL
